# Test system: Staphylococcus aureus X400
# test-details: In vitro antibacterial activity, agar-dilution MIC
# Assay type: cell-based
# experimental-conditions: Staphylococcus aureus X400, methicillin-resistant strain

compound	MIC
CN[C@H](CC(C)C)C(=O)N[C@H]1C(=O)N[C@@H](CC(N)=O)C(=O)N[C@H]2C(=O)N[C@H]3C(=O)N[C@H](C(=O)N[C@H](C(=O)O)c4cc(O)cc(O)c4-c4cc3ccc4O)[C@H](O)c3ccc(cc3)Oc3cc2cc(c3O)Oc2ccc(cc2Cl)[C@H]1O	8 µg/mL
CNC(CC(C)C)C(=O)NC1C(=O)NC(CC(N)=O)C(=O)NC2C(=O)NC3C(=O)NC(C(=O)NC(C(=O)O)c4cc(O)cc(O)c4-c4cc3ccc4O)C(OC3CC(C)(N)C(O)C(C)O3)c3ccc(cc3)Oc3cc2cc(c3OC2OC(CO)C(O)C(O)C2O)Oc2ccc(cc2Cl)C1O (centres unmarked)	1 µg/mL
